Reference source: ChEMBL document CHEMBL1152978

Tested on: Cavia porcellus
test: Inhibition of acetylcholine-induced bronchoconstriction in Dunkin-Hartley guinea pig assessed as time taken to recover 50% of maximum inhibitory effect at 3 mg/mL administered as nebulized solution
Type: functional
Quick reference for Time among some compounds

Some entries whose results are on file:
Q: Name the recorded Time for O=C(O[C@H]1C[N+]2(CCCOc3ccccc3)CCC1CC2)[C@@](O)(c1cccs1)C1CCCC1.[Br-] .
Ans: >6 h

Q: Record request: Time value, item O=C(O[C@H]1C[N+]2(CCCOc3ccccc3)CCC1CC2)C(O)(c1ccccc1)c1ccccc1.[Br-]
Ans: >6 h

Q: Data request, read-out Time, for O=C(O[C@H]1C[N+]2(CCCCc3ccccc3)CCC1CC2)C(O)(c1cccs1)c1cccs1.[Br-]
Ans: 6 h

Q: // query Time value for entry O=C(O[C@H]1C[N+]2(CCCOc3ccccc3)CCC1CC2)[C@](O)(c1cccs1)C1CCCC1.[Br-]
Ans: >6 h

Now take the following compound into account.
Q: Reported Time for O=C(O[C@H]1C[N+]2(CCCOc3ccccc3)CCC1CC2)C1(O)c2ccccc2-c2ccccc21.[Br-] : what is it?
Ans: >6 h

* * *

Tested on: Mus musculus
test: Toxicity in Swiss mouse assessed as occurrence of mydriasis at 30 mg/kg, ip up to 24 hrs
Assay type: organism-based
Set-up: dose 30 mg/kg, route intraperitoneal
test conditions: in vivo
experimental endpoint: Activity

Q: Please give the measured Activity for this compound: O=C(O[C@H]1C[N+]2(CCCOc3ccccc3)CCC1CC2)[C@](O)(c1cccs1)C1CCCC1.[Br-]
Ans: Toxic

Q: Consider the compound CC(C)[N+]1(C)C2CCC1CC(OC(=O)C(CO)c1ccccc1)C2.O.[Br-] (centres undefined) and give its measured Activity.
Ans: Toxic

Q: # get_value(readout='Activity', item= C[N+]1(C)[C@@H]2C[C@@H](OC(=O)C(O)(c3cccs3)c3cccs3)C[C@H]1[C@@H]1O[C@@H]12.O.[Br-] [TIOTROPIUM BROMIDE] )
Ans: Toxic

* * *

The following molecules are listed with their measured pIC50 values.
assay target: UniProt P08172
Sequence (P08172 whole entry): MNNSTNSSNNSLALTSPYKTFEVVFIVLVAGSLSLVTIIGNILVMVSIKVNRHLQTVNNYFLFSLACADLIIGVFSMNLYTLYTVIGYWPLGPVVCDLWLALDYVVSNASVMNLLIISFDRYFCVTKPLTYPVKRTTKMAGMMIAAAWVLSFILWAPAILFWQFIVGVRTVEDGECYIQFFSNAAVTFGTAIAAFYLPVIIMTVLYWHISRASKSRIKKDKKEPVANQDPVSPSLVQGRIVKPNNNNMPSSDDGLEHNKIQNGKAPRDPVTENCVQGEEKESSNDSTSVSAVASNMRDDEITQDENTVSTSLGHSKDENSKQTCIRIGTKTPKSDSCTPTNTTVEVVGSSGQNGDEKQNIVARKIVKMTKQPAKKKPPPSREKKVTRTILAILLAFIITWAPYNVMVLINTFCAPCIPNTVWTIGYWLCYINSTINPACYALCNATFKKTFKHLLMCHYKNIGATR
test: Displacement of [3H]NMS from human muscarinic M2 receptor expressed in CHOK1 cells by microplate scintillation counting
// scale note: pIC50 = -log10(conc_M); give the bare number

Worked cases, pIC50 given:
Q: Form: Entry = CC(C(=O)O[C@H]1C[N+]2(CCCOc3ccccc3)CCC1CC2)(c1cccs1)c1cccs1.[Br-] | System = UniProt P08172 | pIC50 = ____
Ans: 9.14

Q: Query pIC50 on UniProt P08172 for O=C(O[C@H]1C[N+]2(CCc3ccccc3)CCC1CC2)C1c2ccccc2Oc2ccccc21.[Br-]
Ans: 8.74

Q: Fill in the recorded pIC50 for this molecule, with UniProt P08172 as test system: O=C(O[C@H]1C[N+]2(CCCOc3ccccc3)CCC1CC2)[C@@](O)(c1cccs1)C1CCCC1.[Br-]
Ans: 9.00

Q: Record lookup: for UniProt P08172, what pIC50 belongs to O=C(O[C@H]1C[N+]2(CCCOc3ccccc3)CCC1CC2)C1(O)c2ccccc2-c2ccccc21.[Br-] ?
Ans: 8.97

Now look at this one.
Q: Please state recorded pIC50 (tested on UniProt P08172) of O=C(O[C@H]1C[N+]2(CCc3ccccc3)CCC1CC2)C1(O)c2ccccc2Oc2ccccc21.[Br-]
Ans: 9.27
